Recorded values, source patent EP2257297B1.

# Target desc: human MC5R (Homo sapiens)
# Construct: purchased Perkin Elmer RBXMC5M400UA
# Sequence (P33032 whole entry): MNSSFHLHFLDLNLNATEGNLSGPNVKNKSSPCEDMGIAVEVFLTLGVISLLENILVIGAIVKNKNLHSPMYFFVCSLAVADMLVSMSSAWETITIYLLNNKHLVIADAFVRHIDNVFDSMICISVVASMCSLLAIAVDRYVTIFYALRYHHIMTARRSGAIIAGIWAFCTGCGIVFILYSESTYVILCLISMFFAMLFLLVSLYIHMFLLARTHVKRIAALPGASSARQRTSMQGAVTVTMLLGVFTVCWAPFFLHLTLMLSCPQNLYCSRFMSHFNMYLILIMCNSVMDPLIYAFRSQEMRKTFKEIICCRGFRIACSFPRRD
# Method: Human MC5R radioligand binding assay ([125I] NDP-MSH displacement, hMC5R membranes)
# Experimental setup: hMC5R assay as in Example 102; compounds tested as trifluoroacetate or hydrochloride salts, or as free base
pIC50: −log10 of the molar value.
Here, each record is paired with measured pIC50 data.
Property measured: pIC50

>>> reported_result("NCC[C@@H]1N[C@H](CNC(=O)c2ccc3ccccc3c2)CCN(Cc2cc(Cl)cc(Cl)c2)C1=O")
"> 6.00"
>>> reported_result("O=C(NC[C@@H]1CCN(Cc2cc(Cl)cc(Cl)c2)C(=O)[C@H](CCN2CCCCC2)N1)c1ccc(Cl)c(Cl)c1")
"> 7.00"
>>> reported_result("NCCCC[C@@H]1N[C@H](CNC(=O)c2cccc3ccccc23)CCN(Cc2ccc3ccccc3c2)C1=O")
"> 5.00"
>>> reported_result("NCCCC[C@@H]1N[C@H](CNC(=O)Cc2ccc3ccccc3c2)CCN(Cc2ccc3ccccc3c2)C1=O")
"> 5.00"
